Cited source: patent US20260151494A1

molecular target: T1, apical domain of cynomolgus CD71 (cynomolgus, UniProt A0A2K5X958 189-383); test: primary ELISA, signal ratio to HSA
T1 construct: domain: apical domain; also called Cyno apical domain
T1 sequence (A0A2K5X958 entry or part of it): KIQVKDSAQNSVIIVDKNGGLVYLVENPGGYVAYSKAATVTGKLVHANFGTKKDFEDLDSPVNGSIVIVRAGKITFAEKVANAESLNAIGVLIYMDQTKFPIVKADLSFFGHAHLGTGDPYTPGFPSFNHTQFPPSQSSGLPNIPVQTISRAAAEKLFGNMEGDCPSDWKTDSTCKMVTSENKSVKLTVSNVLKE
Friendly reminder: Cyno apical domain:HSA below 100 is YES, at or above is NO.

Take a look at these entries with their results.
INSERT INTO results (binder, category) VALUES
  ('CD71-binding FN3 domain of SEQ ID NO: 157 (designed binder) MSLPAPKNLVVSRVTEDSARLSWTAPDAAFDSFEIGYGEFTYYGEAIVLTVPGSERSYDLTGLKPGTEYWVQIGGVKGGNWSNPLSAIFTT', 'NO'),
  ('CD71-binding FN3 domain of SEQ ID NO: 195 (designed binder) MSLPAPKNLIVSRVTEDSARLSWTAPDAAFDSFEIGYFENLYLGEAIVLTVPGSERSYDLTGLKPGTEYWVQIGGVKGSNWSAPLSAIFTT', 'NO'),
  ('CD71-binding FN3 domain of SEQ ID NO: 166 (designed binder) MSLPAPKNLVVSRVTEDSARLSWTAPDAAFDSFEIGYFENLYLGEAIVLTVPGSERSYDLTGLKPGTEYWVQIGGIKGGNWSAPLSAIFTT', 'NO'),
  ('CD71-binding FN3 domain of SEQ ID NO: 216 (designed binder) MSLPAPKNLVVSRVTEDSARLSWTAPDAAFDSFEIAYFEQTYTGEAIVLTVPGSERSYDLTGLKPGTEYWVQIGGVKGGTWSAPLSAISTT', 'NO'),
  ('CD71-binding FN3 domain of SEQ ID NO: 171 (designed binder) MSLPAPKNLVVSRVTEDSARLSWTAPDAAFDSFEIGYFENLYLGEAIVLTVPGSERSYDLTGLKPGTEYWVQIGGVKGGEWSSPLSAIFTT', 'NO');

Next, consider the following binder.
Input: In plain terms, does CD71-binding FN3 domain of SEQ ID NO: 183 (designed binder) MSLPAPKNLVISRVTEDSARLSWTAPDAAFDSFEIVYAEPVRFGEAIVLTVPGSERSYDLTGLKPGTEYWVQIGGVKGGEWSSPLSAIFTT come in under 100 for Cyno apical domain:HSA?
Output: YES
